Test system: SF-539 CNS
assay_summary: NCI tumour cell line growth inhibition, 48 h
parameter_measured: TGI

Task: Dear colleague, I am looking for the recorded TGI of the following compound: CN(C)c1ccc(-c2cc(-c3ccc(Nc4nc(Nc5ccc(Cl)cc5)nc(Nc5ccc(Cl)cc5)n4)cc3)nc(N)c2C#N)cc1
Result: > 100 µM

Task: # iterate: O=C(c1ccc(Cl)cc1)N(C(=O)N1CCCCC1)c1ccccc1
Result: > 100 µM

Task: # iterate: Cc1ccc(OCC2OC(n3cnc4c(Cl)nc(Nc5cc(Cl)cc(Cl)c5)nc43)CC2Oc2ccc(C)cc2)cc1 (stereo unspecified)
Result: > 100 µM

Task: # iterate: CN1CCOC(C(NC(=O)c2ccccc2)c2ccccc2)C1=O (stereo unspecified)
Result: > 100 µM

Task: # iterate: COC(=O)/C=C/c1ccc(OP(=O)(O)O)c(OC)c1
Result: > 100 µM

Task: # iterate: Nc1nc(=S)c2ncn(C3OC(COP(=O)(O)O)C(O)C3O)c2[nH]1 (stereo unspecified)
Result: > 100 µM

Task: # iterate: COc1ccc(/C=C2\C(=O)N(NC(C)=O)c3ccccc32)cc1
Result: > 100 µM

Task: # iterate: COc1cc(OC)c(OC)cc1/C=C/c1nc2ccccc2s1
Result: > 100 µM

Task: # iterate: O=C(COc1ccc(/C=C2\Oc3ccccc3C2=O)cc1)Nc1nc2ccccc2s1
Result: > 100 µM

Task: # iterate: CC1=NN(c2nc(N)nc(C(C)Cl)n2)C(C)(C)C1 (stereo unspecified)
Result: > 100 µM

Task: # iterate: CC1NOC(=O)C1N=Nc1ccc(Cl)cc1Cl (stereo unspecified)
Result: > 100 µM

----------
System: IGROV1 ovarian
assay_summary: NCI tumour cell line growth inhibition, 48 h
parameter_measured: TGI

Task: Dear colleague, I am looking for the recorded TGI of the following compound: CCOC(=O)c1ccc(N=Nc2ccc(N(CCC#N)CCC#N)cc2C)cc1
Result: > 100 µM

Task: # iterate: O=C(NCCN(CCNC(=O)c1cccc(O)c1O)CCNC(=O)c1cccc(O)c1O)c1cccc(O)c1O
Result: > 72.4 µM

Task: # iterate: COc1ccc(-c2c(C3=NCCCN3)nnn2-c2ccccc2)cc1
Result: > 100 µM

Task: # iterate: O=C1c2cc(O)c(O)cc2O[C@H](c2ccc(O)c(O)c2)[C@H]1O
Result: > 100 µM

Task: # iterate: CC12OC(=O)C(C#N)C1(C)C1C(=O)CCCC12 (configuration not stated)
Result: > 100 µM

Task: # iterate: O=C(O)CCCc1ccc2c(c1)CC1(C2)Cc2cc3c(cc2C1)CCCC3
Result: 41.4 µM

Task: # iterate: O=C(O)CN(CCN(CC(=O)O)CC(=O)O)CC(=O)O.[Mn+2]
Result: > 100 µM

Task: # iterate: C[C@@H]1CC[C@]2(C)C3(C)CC[C@]2(OC3=O)[C@@]12CC(c1ccoc1)OC2=O (some centres not stated)
Result: 64.7 µM

Task: # iterate: CCOC(=O)c1cn(CC)c(=O)n2c1nc1ccccc12
Result: > 100 µM

Task: # iterate: COCCN(CCOC)c1nc(-c2ccccc2)nc2ccccc12
Result: 93.6 µM

Task: # iterate: CC(C)C(Cl)CCC(C)(Cl)C(=O)CBr (configuration not stated)
Result: 16.9 µM

Task: # iterate: C#Cc1ccc(-n2c(/C=C/c3ccc(O)cc3)nc3ncccc3c2=O)cc1
Result: 35.4 µM

Task: # iterate: O=C(NCCC1CNc2ccccc21)OCc1ccccc1 (configuration not stated)
Result: > 100 µM

Task: # iterate: Oc1c(N2CCCCC2)cc(-c2cc(N3CCCCC3)c(O)c3ccccc23)c2ccccc12
Result: > 100 µM

Task: # iterate: O=C(Nn1c(-c2ccccc2)nc2ccccc2c1=O)c1ccc(Cl)cc1
Result: > 100 µM

Task: # iterate: N#CC(C#N)=C/C=C(\Sc1ccc(Cl)cc1)c1ccc(F)cc1
Result: 12.3 µM

Task: # iterate: Cc1cc(Cl)nc(N(CCNc2ccnc3cc(Cl)ccc23)Cc2ccco2)n1
Result: 3.66 µM

Task: # iterate: Cc1cnc(C(=O)NNc2nc3sc4c(c3c(=O)[nH]2)C(C)CCC4)cn1 (configuration not stated)
Result: 15.8 µM

Task: # iterate: O=C(CCc1cc(O)cc(O)c1)NCCc1cc(O)cc(OCc2ccccc2)c1
Result: > 100 µM

Task: # iterate: CC(=O)[CH-]C(=O)c1ccccc1.[C-]#[O+].[C-]#[O+].[Ir]
Result: > 100 µM

Task: # iterate: CC(=O)OC1COC(N2CCc3cc([N+](=O)[O-])ccc32)C(OC(C)=O)C1OC(C)=O (configuration not stated)
Result: > 100 µM

Task: # iterate: CC1=NN(c2nc(N)nc(C(C)Cl)n2)C(C)(C)C1 (configuration not stated)
Result: > 100 µM

----------
System: DU-145 prostate
assay_summary: NCI tumour cell line growth inhibition, 48 h
Task for the reader: assign each of the following compounds its reported TGI.

Task: Dear colleague, I am looking for the recorded TGI of the following compound: Clc1ccc(C=Nc2ccc(Oc3ccc(Cl)cc3)c(Cl)c2)cc1
Result: > 100 µM

Task: # iterate: COCCOC1=C(Cl)C(=O)c2ccccc2C1=O
Result: 10.7 µM

Task: # iterate: CC(C)[C@@H]1CC[C@]2(CO2)[C@@H]2C(=O)OCC(C(=O)O)=C[C@H]21
Result: > 100 µM

Task: # iterate: CC1=NN(c2nc(N)nc(C(C)Cl)n2)C(C)(C)C1 (stereo not given)
Result: > 100 µM

Task: # iterate: C(=Nc1nc(SCc2ccccc2)nc2[nH]ncc12)c1cccs1
Result: > 100 µM

----------
Tested on: SK-MEL-5 melanoma
assay_summary: NCI tumour cell line growth inhibition, 48 h
Task for the reader: assign each of the following compounds its reported TGI.
Give just the number in µM; leave the unit off.

Task: Tell me reported TGI for C[C@H]1CC[C@@]2(OC1)O[C@H]1C[C@H]3[C@@H]4CC[C@@H]5C[C@@H](OC6OC(CO)C(O)C(O)C6OC6OC(CO)C(O)C(O)C6O)CC[C@]5(C)[C@H]4CC[C@]3(C)[C@H]1[C@@H]2C (some centres undefined) , tested with SK-MEL-5 melanoma.
Result: 3.93

Task: # iterate: Cc1ccc(NC(=O)c2cc(S(=O)(=O)Nc3nnc(-c4ccccc4)c(-c4ccccc4)n3)c(SCc3ccccc3)cc2Cl)cc1
Result: 37.6

Task: # iterate: COc1ccc(Nc2cnc3cc(N)cc(N)c3n2)cc1
Result: 29.8

----------
System: MDA-MB-435
assay_summary: NCI tumour cell line growth inhibition, 48 h
Task for the reader: assign each of the following molecules its reported TGI.
Give just the number in µM; leave the unit off.

Task: Tell me reported TGI for Oc1c(N2CCCCC2)cc(-c2cc(N3CCCCC3)c(O)c3ccccc23)c2ccccc12 , tested with MDA-MB-435.
Result: 23.2

Task: # iterate: CCCCCC(=O)O[C@]1(C(C)=O)CCC2C3CCC4=CC(=O)CC[C@]4(C)C3CC[C@@]21C (stereo partly specified)
Result: 13.1

Task: # iterate: Cc1cc(Cl)nc(N(CCNc2ccnc3cc(Cl)ccc23)Cc2ccco2)n1
Result: 3.4

Task: # iterate: COCCOC1=C(Cl)C(=O)c2ccccc2C1=O
Result: 10.4

Task: # iterate: COc1ccc(CCCCNCc2cccc(CNCCCCc3ccc(OC)cc3)c2)cc1
Result: 3.63

Task: # iterate: COc1ccc(Nc2cnc3cc(N)cc(N)c3n2)cc1
Result: 33.8

----------
System: LXFL 529 NSCLC
assay_summary: NCI tumour cell line growth inhibition, 48 h
parameter_measured: TGI

Task: Dear colleague, I am looking for the recorded TGI of the following compound: NNC(=O)C(=O)NN=C(C(Cl)(Cl)CO)C(Cl)(Cl)CO
Result: > 100 µM

Task: # iterate: N#Cc1ccc(Sc2nc3ccccc3[nH]2)cc1
Result: > 100 µM

Task: # iterate: COc1cc(/C=C2\NC(=O)C(Cc3cc(OC)c(OC)c(C)c3OC)N(C(C)=O)C2=O)c(OC)c(C)c1OC (stereo unspecified)
Result: > 100 µM

Task: # iterate: COc1ccc2nc(NC(=O)C(=O)CC(=O)c3ccc([N+](=O)[O-])cc3)sc2c1
Result: > 100 µM

Task: # iterate: O=C1N[C@@H]2CCCC[C@@H]2C12CCCCC2
Result: > 100 µM

Task: # iterate: O=C(NCCc1ccccc1)C1C(=O)C(=O)N(CCc2ccccc2)C1=O (stereo unspecified)
Result: > 100 µM

Task: # iterate: N#CC1CC(c2ccccc2)Nc2cc(Cl)ccc2N1 (stereo unspecified)
Result: > 100 µM

Task: # iterate: CCOC(=O)C1S(=O)(=O)OCCOS1(=O)=O
Result: > 100 µM

Task: # iterate: O=C1CC(c2ccc(Cl)cc2)=Nc2ccccc2N1
Result: > 100 µM

Task: # iterate: O=[N+]([O-])c1ccc(-c2ccc(C3=Nn4c(CNc5ccccc5Cl)nnc4SC3)o2)cc1
Result: > 100 µM

Task: # iterate: CC(C)(CN1CCCCC1)C(=O)/C=C/c1ccc(Br)cc1
Result: 3.52 µM

Task: # iterate: COC(=O)C1=C(C(=O)OC)C2(c3ccccc3)OC1(c1ccccc1)c1cc3ccccc3cc12
Result: 2.63 µM

Task: # iterate: OC(c1ccccc1Br)(c1ccccc1Br)C(F)(F)F
Result: > 100 µM

Task: # iterate: CC(=O)OC1COC(N2CCc3cc([N+](=O)[O-])ccc32)C(OC(C)=O)C1OC(C)=O (stereo unspecified)
Result: > 100 µM

Task: # iterate: CCc1cccc(CC)c1NC(=O)/C(Cl)=C(/Cl)C(=O)O
Result: 20.9 µM

Task: # iterate: NC(N)=NCCCC(NCc1c2ccccc2nc2ccccc12)C(=O)O (stereo unspecified)
Result: > 100 µM
